# testedSystem: human Cot/Tpl2 kinase (Homo sapiens)
# Construct: human Cot/Tpl2 kinase construct encoding residues 30-398; 6His (N); made in house; host or cells: Sf9 insect cells, baculovirus system (BD Biosciences)
# Sequence (P41279 30-398): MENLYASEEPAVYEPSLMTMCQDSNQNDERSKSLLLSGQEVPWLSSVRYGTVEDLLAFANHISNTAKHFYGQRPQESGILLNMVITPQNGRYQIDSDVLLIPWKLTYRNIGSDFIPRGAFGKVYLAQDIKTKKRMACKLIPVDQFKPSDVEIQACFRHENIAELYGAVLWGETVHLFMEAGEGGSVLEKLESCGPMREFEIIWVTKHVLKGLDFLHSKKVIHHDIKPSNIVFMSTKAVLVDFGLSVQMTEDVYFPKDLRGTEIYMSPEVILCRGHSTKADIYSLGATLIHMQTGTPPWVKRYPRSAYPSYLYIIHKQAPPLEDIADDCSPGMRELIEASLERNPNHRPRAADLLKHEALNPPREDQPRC
# assayMethodText: Tpl2/Cot kinase assay: GST-MEK1 phosphorylation detected by ELISA (DELFIA Eu)
# Type: biochemical
# testParameters: 0.4 nM Tpl2, 35 nM GST-MEK1, 50 uM ATP, 1 h at 30° C.
propertyMeasured: IC50 (nM)

Check out these entries, answers already filled in.
1. N#Cc1cnc2c(Cl)cc(NCc3cc4n(n3)CCO4)cc2c1Nc1ccc(F)c(Cl)c1 [Example 188]
59
2. COCCOc1ccc(CNc2ccc3ncc(C#N)c(Nc4ccc(F)c(Cl)c4)c3c2)cc1Br [Example 24]
380

P. CC(C)(C)OC(=O)N1CCC(NC(=O)Cn2ccnc2CNc2ccc3ncc(C#N)c(Nc4ccc(F)c(Cl)c4)c3c2)CC1 [Example 142]
Q. CN(C)C(=O)c1cc(NCc2ccc(C#N)cc2)cc2c(Nc3ccc(F)c(Cl)c3)c(C#N)cnc12 [Example 86]
R. Cc1cc(CNc2ccc3ncc(C#N)c(Nc4ccc(F)c(Cl)c4)c3c2)n(C)n1 [Example 33]
S. N#Cc1cnc2c(I)cc(NCc3cccnc3)cc2c1Nc1cccc(Cl)c1 [Example 79]
-- ask Write the entries in order, lowest recorded IC50 first. List each label, following the requested order.
-- reply R, S, Q, P
(R: 200 nM, S: 570 nM, Q: 1100 nM, P: 1800 nM)

* * *

# testedSystem: human Cot/Tpl2 kinase (Homo sapiens)
# Construct: human Cot/Tpl2 kinase construct encoding residues 30-398; 6His (N); made in house; host or cells: Sf9 insect cells, baculovirus system (BD Biosciences)
# assayMethodText: Tpl2/Cot kinase assay: GST-MEK1 phosphorylation detected by ELISA (DELFIA Eu)
# Assay type: biochemical
# testParameters: 0.4 nM Tpl2, 35 nM GST-MEK1, 50 uM ATP, 1 h at 30° C.
pIC50: −log10 of the molar value.
propertyMeasured: pIC50

Check out these entries, answers already filled in.
1) N#Cc1cnc2c(Br)cc(NCc3[nH]cnc3-c3ccccc3)cc2c1Nc1ccc(F)c(Cl)c1 [Example 111]
7.48
2) N#Cc1cnc2c(Cl)cc(NCc3cn(C4CCC(=O)CC4)nn3)cc2c1Nc1ccc(F)c(Cl)c1 [Example 333]
8.96
3) Cc1c(CNc2ccc3ncc(C#N)c(Nc4ccc(F)c(Cl)c4)c3c2)ncn1C [Example 128]
8.49
4) Cc1c(CNc2cc(Br)c3ncc(C#N)c(Nc4ccc(F)c(Cl)c4)c3c2)ncn1C [Example 113]
8.00

a. CCc1nc(C)c(CNc2ccc3ncc(C#N)c(Nc4ccc(F)c(Cl)c4)c3c2)[nH]1 [Example 23]
b. Cc1ncn(C)c1CNc1ccc2ncc(C#N)c(Nc3ccc(F)c(Cl)c3)c2c1 [Example 133]
c. N#Cc1cnc2c(Br)cc(NCc3cccnc3)cc2c1Nc1cccc(Cl)c1 [Example 70]
d. N#Cc1cnc2c(C(F)(F)F)cc(NCc3cccn3S(=O)(=O)c3ccccc3)cc2c1Nc1ccc(F)c(Cl)c1 [Example 237]
e. N#Cc1cnc2c(Cl)cc(NCc3cccc[n+]3[O-])cc2c1Nc1ccc(F)c(Cl)c1 [Example 182]
-- ask Falling order of pIC50, please. List each label, following the requested order.
-- reply e, c, b, a, d
